# Tested on: coagulation in human plasma
# assay_comment: prothrombin time (PT, Quick value) in human plasma
Assign y whenever Concentr. to double the Prothrombin time does not fall below 2 µmol/L; assign n whenever it does.

compound: CC(=O)N1CCN(C(=O)[C@H](Cc2cccc(C(=N)N)c2)NS(=O)(=O)c2ccc3ccccc3c2)CC1.Cl
assay_target: coagulation in human plasma
class_label: n
//
compound: CC(=O)N1CCN(C(=O)C(Cc2cccc(C(=N)N)c2)NS(=O)(=O)c2ccc3ccccc3c2)CC1 (stereo not drawn)
assay_target: coagulation in human plasma
class_label: y
//
compound: CN(C)C(=O)N1CCN(C(=O)[C@H](Cc2cccc(C(=N)N)c2)NS(=O)(=O)c2ccc3ccccc3c2)CC1
assay_target: coagulation in human plasma
class_label: n
//
compound: COc1cc(C)c(S(=O)(=O)N[C@@H](Cc2cccc(C(=N)N)c2)C(=O)N2CCN(S(C)(=O)=O)CC2)c(C)c1C
assay_target: coagulation in human plasma
class_label: n
//
compound: CCOC(=O)N1CCN(C(=O)C(Cc2cccc(C(=N)N)c2)NS(=O)(=O)c2ccc3ccccc3c2)CC1 (racemic) [X, reference compound]
assay_target: coagulation in human plasma
class_label: y
